This section presents compounds with their documented GI50 values.
Tested on: T315I-Bcr-Abl Ba/F3
Experiment: Proliferation inhibitory activity, T315I-Bcr-Abl Ba/F3
Type: cell-based
Settings: Mus musculus, BaF3; T315I-Bcr-Abl Ba/F3 cell line

{"entry.smiles": "Cc1cn(-c2cc(C(=O)Nc3ccc(C)c(-c4ccc5ccn(-c6cc(N)ncn6)c5c4)c3)cc(C(F)(F)F)c2)cn1", "measured.endpoint": "GI50", "result": "< 300 nM"}
{"entry.smiles": "Cc1ccc(NC(=O)c2ccc(CN3CCN(C)CC3)c(C(F)(F)F)c2)cc1-c1ccc2ccn(-c3ncnc4[nH]ccc34)c2c1", "measured.endpoint": "GI50", "result": "< 300 nM"}
{"entry.smiles": "Cc1ccc(NC(=O)c2cc(N3CCN(C)CC3)cc(C(F)(F)F)c2)cc1-c1ccc2ccn(-c3ncnc4[nH]ccc34)c2c1", "measured.endpoint": "GI50", "result": "< 300 nM"}
{"entry.smiles": "Nc1cc(-n2ccc3ccc(-c4cccc(NC(=O)c5cc(N6CCOCC6)cc(C(F)(F)F)c5)c4)cc32)ncn1", "measured.endpoint": "GI50", "result": "> 3000 nM"}
{"entry.smiles": "COc1ccccc1NC(=O)Nc1ccc(C)c(-c2ccc3ccn(-c4cc(N)ncn4)c3c2)c1", "measured.endpoint": "GI50", "result": "> 3000 nM"}

Query: Using the record for Cc1ccc(NC(=O)c2cc(N3CCOCC3)cc(C(F)(F)F)c2)cc1-c1ccc2ccn(-c3cc(N)ncn3)c2c1 , report its GI50.
Response: < 300 nM

Query: I would be grateful if you could share the reported GI50 for Cc1ccc(NC(=O)c2cc(N3CCOCC3)cc(C(F)(F)F)c2)cc1-c1ccc2ccn(-c3ncnc4[nH]ccc34)c2c1 .
Response: 300 to 3000 nM

====

System: Parental Ba/F3
Assay: Proliferation inhibitory activity, parental Ba/F3
Format: cell-based
Settings: Mus musculus, BaF3; parental Ba/F3 cell line
measured.endpoint: GI50

Check out these entries, answers already filled in.
{"compound": "Cc1ccc(NC(=O)c2cc(N3CCC(O)CC3)cc(C(F)(F)F)c2)cc1-c1ccc2ccn(-c3cc(N)ncn3)c2c1 [Compound No. 2]", "GI50": "> 3 µM"}
{"compound": "Cc1ccc(NC(=O)c2cc(N3CCOCC3)cc(C(F)(F)F)c2)cc1-c1ccc2ccn(-c3cc(N)ncn3)c2c1 [Compound No. 3]", "GI50": "> 3 µM"}
{"compound": "Cc1ccc(NC(=O)c2cc(N3CCOCC3)cc(C(F)(F)F)c2)cc1-c1ccc2ccn(-c3ncnc4[nH]ccc34)c2c1 [Compound No. 13]", "GI50": "> 3 µM"}
{"compound": "Cc1ccc(NC(=O)c2ccc(N3CCN(C)CC3)c(C(F)(F)F)c2)cc1-c1ccc2ccn(-c3cc(N)ncn3)c2c1 [Compound No. 5]", "GI50": "0.3 to 3 µM"}
{"compound": "COc1ccccc1NC(=O)Nc1cccc(-c2ccc3ccn(-c4ncnc5[nH]ccc45)c3c2)c1 [Compound No. 10]", "GI50": "> 3 µM"}

Query: GET /values?readout=GI50&item= Cc1ccc(NC(=O)c2ccc(N3CCN(C)CC3)c(C(F)(F)F)c2)cc1-c1ccc2ccn(-c3ncnc4[nH]ccc34)c2c1 [Compound No. 15]
Response: 0.3 to 3 µM

Query: Fill blank: measured GI50 of the compound Nc1cc(-n2ccc3ccc(-c4cccc(NC(=O)c5cc(N6CCOCC6)cc(C(F)(F)F)c5)c4)cc32)ncn1 [Compound No. 8] is ____.
Response: > 3 µM

Query: // returns reported GI50 for input Cc1ccc(NC(=O)c2cc(N3CCN(C)CC3)cc(C(F)(F)F)c2)cc1-c1ccc2ccn(-c3ncnc4[nH]ccc34)c2c1 [Compound No. 14]
Response: 0.3 to 3 µM

====

As shown below, each of these compounds has a reported GI50 value.
System: T315I-Bcr-Abl Ba/F3
Assay: Proliferation inhibitory activity, T315I-Bcr-Abl Ba/F3
Format: cell-based
Details: Mus musculus, BaF3; T315I-Bcr-Abl Ba/F3 cell line

Query: GET /values?readout=GI50&item= Cc1ccc(NC(=O)c2cc(N3CCC(O)CC3)cc(C(F)(F)F)c2)cc1-c1ccc2ccn(-c3ncnc4[nH]ccc34)c2c1 [Compound No. 12]
Response: 300 to 3000 nM

Query: // lookup GI50 for Cc1ccc(NC(=O)c2cc(N3CCC(O)CC3)cc(C(F)(F)F)c2)cc1-c1ccc2ccn(-c3cc(N)ncn3)c2c1 [Compound No. 2]
Response: < 300 nM

Query: Quick check: GI50 of Cc1ccc(NC(=O)c2ccc(N3CCN(C)CC3)c(C(F)(F)F)c2)cc1-c1ccc2ccn(-c3ncnc4[nH]ccc34)c2c1 [Compound No. 15] ?
Response: < 300 nM

====

GI50 for assorted molecules
Tested on: Parental Ba/F3
Assay: Proliferation inhibitory activity, parental Ba/F3
Format: cell-based
Settings: Mus musculus, BaF3; parental Ba/F3 cell line

These recorded examples may help you get a feel for the data.
{"entry.smiles": "Cc1cn(-c2cc(C(=O)Nc3ccc(C)c(-c4ccc5ccn(-c6ncnc7[nH]ccc67)c5c4)c3)cc(C(F)(F)F)c2)cn1", "measured.endpoint": "GI50", "result": "0.3 to 3 µM"}
{"entry.smiles": "Cc1cn(-c2cc(C(=O)Nc3cccc(-c4ccc5ccn(-c6cc(N)ncn6)c5c4)c3)cc(C(F)(F)F)c2)cn1", "measured.endpoint": "GI50", "result": "> 3 µM"}
{"entry.smiles": "COc1ccccc1NC(=O)Nc1ccc(C)c(-c2ccc3ccn(-c4cc(N)ncn4)c3c2)c1", "measured.endpoint": "GI50", "result": "> 3 µM"}
{"entry.smiles": "Cc1ccc(NC(=O)c2cc(N3CCC(O)CC3)cc(C(F)(F)F)c2)cc1-c1ccc2ccn(-c3ncnc4[nH]ccc34)c2c1", "measured.endpoint": "GI50", "result": "> 3 µM"}
{"entry.smiles": "Cc1ccc(NC(=O)c2ccc(CN3CCN(C)CC3)c(C(F)(F)F)c2)cc1-c1ccc2ccn(-c3ncnc4[nH]ccc34)c2c1", "measured.endpoint": "GI50", "result": "0.3 to 3 µM"}

For the next question, use this molecule.
Query: # get_value(readout='GI50', item= Cc1cn(-c2cc(C(=O)Nc3ccc(C)c(-c4ccc5ccn(-c6cc(N)ncn6)c5c4)c3)cc(C(F)(F)F)c2)cn1 )
Response: 0.3 to 3 µM

====

Tested on: T315I-Bcr-Abl Ba/F3
Test: Proliferation inhibitory activity, T315I-Bcr-Abl Ba/F3
Type: cell-based
Conditions: Mus musculus, BaF3; T315I-Bcr-Abl Ba/F3 cell line
Recorded GI50 by entry

Record excerpt, results attached:
{"entry.smiles": "Cc1cn(-c2cc(C(=O)Nc3ccc(C)c(-c4ccc5ccn(-c6ncnc7[nH]ccc67)c5c4)c3)cc(C(F)(F)F)c2)cn1", "GI50": "< 300 nM"}
{"entry.smiles": "Cc1cn(-c2cc(C(=O)Nc3cccc(-c4ccc5ccn(-c6cc(N)ncn6)c5c4)c3)cc(C(F)(F)F)c2)cn1", "GI50": "300 to 3000 nM"}
{"entry.smiles": "Cc1ccc(NC(=O)c2ccc(N3CCN(C)CC3)c(C(F)(F)F)c2)cc1-c1ccc2ccn(-c3cc(N)ncn3)c2c1", "GI50": "< 300 nM"}

Okay, next one:
Query: Find the recorded GI50 belonging to COc1ccccc1NC(=O)Nc1cccc(-c2ccc3ccn(-c4ncnc5[nH]ccc45)c3c2)c1 and report it.
Response: > 3000 nM

====

Test system: wt-Bcr-Abl Ba/F3
Assay: Proliferation inhibitory activity, wt-Bcr-Abl Ba/F3
Type: cell-based
Details: Mus musculus, BaF3; wt-Bcr-Abl Ba/F3 cell line
measured.endpoint: GI50

Some entries whose results are on file:
{"molecule": "Cc1ccc(NC(=O)c2cc(N3CCN(C)CC3)cc(C(F)(F)F)c2)cc1-c1ccc2ccn(-c3ncnc4[nH]ccc34)c2c1 [Compound No. 14]", "result": "300 to 3000 nM"}
{"molecule": "Cc1ccc(NC(=O)c2ccc(N3CCN(C)CC3)c(C(F)(F)F)c2)cc1-c1ccc2ccn(-c3ncnc4[nH]ccc34)c2c1 [Compound No. 15]", "result": "300 to 3000 nM"}
{"molecule": "Cc1ccc(NC(=O)c2ccc(CN3CCN(C)CC3)c(C(F)(F)F)c2)cc1-c1ccc2ccn(-c3ncnc4[nH]ccc34)c2c1 [Compound No. 16]", "result": "< 300 nM"}
{"molecule": "Nc1cc(-n2ccc3ccc(-c4cccc(NC(=O)c5cc(N6CCOCC6)cc(C(F)(F)F)c5)c4)cc32)ncn1 [Compound No. 8]", "result": "> 3000 nM"}

Query: Given Cc1ccc(NC(=O)c2cc(N3CCC(O)CC3)cc(C(F)(F)F)c2)cc1-c1ccc2ccn(-c3ncnc4[nH]ccc34)c2c1 [Compound No. 12] , state its recorded GI50.
Response: > 3000 nM

Query: Which measured GI50 value corresponds to COc1ccccc1NC(=O)Nc1cccc(-c2ccc3ccn(-c4ncnc5[nH]ccc45)c3c2)c1 [Compound No. 10] ?
Response: > 3000 nM

Query: Suppose we examine the molecule Cc1cn(-c2cc(C(=O)Nc3cccc(-c4ccc5ccn(-c6cc(N)ncn6)c5c4)c3)cc(C(F)(F)F)c2)cn1 [Compound No. 7] ; what GI50 value has been reported?
Response: > 3000 nM

Query: Item Cc1ccc(NC(=O)c2cc(N3CCC(O)CC3)cc(C(F)(F)F)c2)cc1-c1ccc2ccn(-c3cc(N)ncn3)c2c1 [Compound No. 2] has what recorded GI50?
Response: > 3000 nM
